Values from paper PMC9834611

# run.description: VBL PK study in dogs (clinical trial, serum)
# applied.conditions: dog, iv, 2.5 mg/m2, AUCt, dogs, 2.5 mg/m^2 IV bolus, 0 to 24 h, observed, concomitant prednisone/omeprazole/diphenhydramine (POD)
measurement.name: AUC(0-t)

Q. Check the records and state AUC(0-t) for CC[C@]1(O)C[C@@H]2CN(CCc3c([nH]c4ccccc34)[C@@](C(=O)OC)(c3cc4c(cc3OC)N(C)[C@H]3[C@@](O)(C(=O)OC)[C@H](OC(C)=O)[C@]5(CC)C=CCN6CC[C@]43[C@@H]65)C2)C1
A. 0.0477 µM·h

* * *

# run.description: VBL PK study in wild‐type and Mdr1a/b(−/−) mice, observed serum and tissue data
# applied.conditions: female, FVB (wild-type), mouse, in vivo, iv, 2 mg/kg, t1/2, wild‐type mice, serum, 2 mg/kg IV, Obs
measurement.name: half-life (h)
Give just the numeric value; h need not be written.

Q. Check the records and state half-life for CC[C@]1(O)C[C@@H]2CN(CCc3c([nH]c4ccccc34)[C@@](C(=O)OC)(c3cc4c(cc3OC)N(C)[C@H]3[C@@](O)(C(=O)OC)[C@H](OC(C)=O)[C@]5(CC)C=CCN6CC[C@]43[C@@H]65)C2)C1 [VBL, Vinblastine]
A. 1.6

* * *

# run.description: VBL PK study in wild‐type and Mdr1a/b(−/−) mice, observed serum and tissue data
# applied.conditions: female, Mdr1a/b (−/−) knock-out in FVB background, mouse, in vivo, iv, 2 mg/kg, t1/2, Mdr1a/b (−/−) mice, bone marrow, 2 mg/kg IV, Obs
measurement.name: half-life (h)
Give just the numeric value; h need not be written.

Q. Check the records and state half-life for CC[C@]1(O)C[C@@H]2CN(CCc3c([nH]c4ccccc34)[C@@](C(=O)OC)(c3cc4c(cc3OC)N(C)[C@H]3[C@@](O)(C(=O)OC)[C@H](OC(C)=O)[C@]5(CC)C=CCN6CC[C@]43[C@@H]65)C2)C1
A. 5.83

* * *

# run.description: VBL PK study in wild‐type and Mdr1a/b(−/−) mice, observed serum and tissue data
# applied.conditions: female, FVB (wild-type), mouse, liver, iv, 2 mg/kg
measurement.name: AUC (µM·h)
Give just the numeric value; µM·h need not be written.

Q. Check the records and state AUC for CC[C@]1(O)C[C@@H]2CN(CCc3c([nH]c4ccccc34)[C@@](C(=O)OC)(c3cc4c(cc3OC)N(C)[C@H]3[C@@](O)(C(=O)OC)[C@H](OC(C)=O)[C@]5(CC)C=CCN6CC[C@]43[C@@H]65)C2)C1
A. 4.21

* * *

# run.description: VBL PK study in wild‐type and Mdr1a/b(−/−) mice, observed serum and tissue data
# applied.conditions: female, Mdr1a/b (−/−) knock-out in FVB background, mouse, liver, iv, 2 mg/kg
measurement.name: AUC (µM·h)
Give just the numeric value; µM·h need not be written.

Q. Check the records and state AUC for CC[C@]1(O)C[C@@H]2CN(CCc3c([nH]c4ccccc34)[C@@](C(=O)OC)(c3cc4c(cc3OC)N(C)[C@H]3[C@@](O)(C(=O)OC)[C@H](OC(C)=O)[C@]5(CC)C=CCN6CC[C@]43[C@@H]65)C2)C1
A. 4.27

* * *

# run.description: VBL PK study in dogs (clinical trial, serum)
# applied.conditions: dog, iv, 2.5 mg/m2, t1/2, dogs, 2.5 mg/m^2 IV bolus, observed, concomitant prednisolone only
measurement.name: half-life (h)
Give just the numeric value; h need not be written.

Q. Check the records and state half-life for CC[C@]1(O)C[C@@H]2CN(CCc3c([nH]c4ccccc34)[C@@](C(=O)OC)(c3cc4c(cc3OC)N(C)[C@H]3[C@@](O)(C(=O)OC)[C@H](OC(C)=O)[C@]5(CC)C=CCN6CC[C@]43[C@@H]65)C2)C1
A. 15.7

* * *

# run.description: VBL PK study in wild‐type and Mdr1a/b(−/−) mice, observed serum and tissue data
# applied.conditions: female, FVB (wild-type), mouse, kidney, iv, 2 mg/kg
measurement.name: AUC (µM·h)
Give just the numeric value; µM·h need not be written.

Q. Check the records and state AUC for CC[C@]1(O)C[C@@H]2CN(CCc3c([nH]c4ccccc34)[C@@](C(=O)OC)(c3cc4c(cc3OC)N(C)[C@H]3[C@@](O)(C(=O)OC)[C@H](OC(C)=O)[C@]5(CC)C=CCN6CC[C@]43[C@@H]65)C2)C1 [VBL, Vinblastine]
A. 12.6

* * *

# run.description: VBL PK study in wild‐type and Mdr1a/b(−/−) mice, observed serum and tissue data
# applied.conditions: female, FVB (wild-type), mouse, in vivo, iv, 2 mg/kg, t1/2, wild‐type mice, brain, 2 mg/kg IV, Obs
measurement.name: half-life (h)
Give just the numeric value; h need not be written.

Q. Check the records and state half-life for CC[C@]1(O)C[C@@H]2CN(CCc3c([nH]c4ccccc34)[C@@](C(=O)OC)(c3cc4c(cc3OC)N(C)[C@H]3[C@@](O)(C(=O)OC)[C@H](OC(C)=O)[C@]5(CC)C=CCN6CC[C@]43[C@@H]65)C2)C1
A. 3.94

* * *

# run.description: VBL PK study in wild‐type and Mdr1a/b(−/−) mice, observed serum and tissue data
# applied.conditions: female, FVB (wild-type), mouse, gut, iv, 2 mg/kg
measurement.name: AUC (µM·h)
Give just the numeric value; µM·h need not be written.

Q. Check the records and state AUC for CC[C@]1(O)C[C@@H]2CN(CCc3c([nH]c4ccccc34)[C@@](C(=O)OC)(c3cc4c(cc3OC)N(C)[C@H]3[C@@](O)(C(=O)OC)[C@H](OC(C)=O)[C@]5(CC)C=CCN6CC[C@]43[C@@H]65)C2)C1
A. 3.47

* * *

# run.description: VBL PK study in dogs (clinical trial, serum)
# applied.conditions: dog, iv, 2.5 mg/m2, t1/2, dogs, 2.5 mg/m^2 IV bolus, observed, concomitant prednisone/omeprazole/diphenhydramine (POD)
measurement.name: half-life (h)
Give just the numeric value; h need not be written.

Q. Check the records and state half-life for CC[C@]1(O)C[C@@H]2CN(CCc3c([nH]c4ccccc34)[C@@](C(=O)OC)(c3cc4c(cc3OC)N(C)[C@H]3[C@@](O)(C(=O)OC)[C@H](OC(C)=O)[C@]5(CC)C=CCN6CC[C@]43[C@@H]65)C2)C1
A. 5.15

* * *

# run.description: VBL PK study in wild‐type and Mdr1a/b(−/−) mice, observed serum and tissue data
# applied.conditions: female, FVB (wild-type), mouse, in vivo, iv, 2 mg/kg, t1/2, wild‐type mice, gut, 2 mg/kg IV, Obs
measurement.name: half-life

Q. Check the records and state half-life for CC[C@]1(O)C[C@@H]2CN(CCc3c([nH]c4ccccc34)[C@@](C(=O)OC)(c3cc4c(cc3OC)N(C)[C@H]3[C@@](O)(C(=O)OC)[C@H](OC(C)=O)[C@]5(CC)C=CCN6CC[C@]43[C@@H]65)C2)C1 [VBL, Vinblastine]
A. 1.27 h

* * *

# run.description: VBL PK study in wild‐type and Mdr1a/b(−/−) mice, observed serum and tissue data
# applied.conditions: female, FVB (wild-type), mouse, serum, iv, 2 mg/kg
measurement.name: AUC (µM·h)
Give just the numeric value; µM·h need not be written.

Q. Check the records and state AUC for CC[C@]1(O)C[C@@H]2CN(CCc3c([nH]c4ccccc34)[C@@](C(=O)OC)(c3cc4c(cc3OC)N(C)[C@H]3[C@@](O)(C(=O)OC)[C@H](OC(C)=O)[C@]5(CC)C=CCN6CC[C@]43[C@@H]65)C2)C1
A. 0.181

* * *

# run.description: in vitro
# applied.conditions: female, CD-1, mouse, liver microsomes
measurement.name: Km at 5 min
Enter the number, and then the unit.

Q. Check the records and state Km at 5 min for CC[C@]1(O)C[C@@H]2CN(CCc3c([nH]c4ccccc34)[C@@](C(=O)OC)(c3cc4c(cc3OC)N(C)[C@H]3[C@@](O)(C(=O)OC)[C@H](OC(C)=O)[C@]5(CC)C=CCN6CC[C@]43[C@@H]65)C2)C1
A. 11.6 µM

* * *

# run.description: VBL PK study in wild‐type and Mdr1a/b(−/−) mice, observed serum and tissue data
# applied.conditions: female, Mdr1a/b (−/−) knock-out in FVB background, mouse, bone marrow, iv, 2 mg/kg
# Procedure: Mouse protocols were approved by the Institutional Animal Care and Use Committee at Colorado State University. […] The resulting serum and tissues were flash‐frozen in liquid nitrogen and stored at −80°C until ready for analysis. […] Plasma and tissue concentrations were measured at time intervals between […] and 6 h post‐drug administration. […]
measurement.name: AUC (µM·h)
Give just the numeric value; µM·h need not be written.

Q. Check the records and state AUC for CC[C@]1(O)C[C@@H]2CN(CCc3c([nH]c4ccccc34)[C@@](C(=O)OC)(c3cc4c(cc3OC)N(C)[C@H]3[C@@](O)(C(=O)OC)[C@H](OC(C)=O)[C@]5(CC)C=CCN6CC[C@]43[C@@H]65)C2)C1
A. 2.71
